Recorded koff for the following binders
measured.on: T1, C-reactive protein (human (produced in the Human Secretome …, UniProt P02741 19-224))
T1 construct: also called CRP; bCRP
T1 sequence (looked up): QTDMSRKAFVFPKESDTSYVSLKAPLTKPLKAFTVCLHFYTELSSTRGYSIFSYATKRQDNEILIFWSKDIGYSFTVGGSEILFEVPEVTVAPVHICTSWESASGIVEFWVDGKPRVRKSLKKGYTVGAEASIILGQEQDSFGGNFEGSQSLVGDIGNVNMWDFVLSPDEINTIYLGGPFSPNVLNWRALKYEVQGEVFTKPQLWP
procedure.text: SPR Biacore T200, target on CM5 chip, ADAPT injected, 1:1 fit
Return type: number; implicit unit s⁻¹.

Consider the following illustrative entries.
LHYAKIMAFHELWQYGVSDFYLQLIDKAKTVEGVEALKLHILAALP (designed binder) [ADAPT variant CRP_48]	0.0012
LSKAKAQAWHELYYYGVSDFYLSLIDKAKTVEGVEALKLHILAALP (designed binder) [ADAPT variant CRP_23]	0.0017
LKVAKIIAFHELWEYGVSDFYLSLIDKAKTVEGVEALKLHILAALP (designed binder) [ADAPT variant CRP_38]	0.0017

So, LRVAKSMAWHELWSYGVSDFYLRLIDKAKTVEGVEALKLHILAALP (designed binder) [ADAPT variant CRP_09] ? Its koff was 0.0013

These data points were gathered from patent US20230250160A1.
